biological target: PTK2 (Homo sapiens, UniProt Q05397); construct: purchased Invitrogen PV3832; assay: PTK2 enzyme test Assay 1 (DELFIA, poly-Glu-Tyr substrate, PT60 antibody); format: biochemical; details: Assay 1 (values without *); 1 h pre-incubation, 50 μM ATP mix, final DMSO 2%
Sequence (Q05397 whole entry): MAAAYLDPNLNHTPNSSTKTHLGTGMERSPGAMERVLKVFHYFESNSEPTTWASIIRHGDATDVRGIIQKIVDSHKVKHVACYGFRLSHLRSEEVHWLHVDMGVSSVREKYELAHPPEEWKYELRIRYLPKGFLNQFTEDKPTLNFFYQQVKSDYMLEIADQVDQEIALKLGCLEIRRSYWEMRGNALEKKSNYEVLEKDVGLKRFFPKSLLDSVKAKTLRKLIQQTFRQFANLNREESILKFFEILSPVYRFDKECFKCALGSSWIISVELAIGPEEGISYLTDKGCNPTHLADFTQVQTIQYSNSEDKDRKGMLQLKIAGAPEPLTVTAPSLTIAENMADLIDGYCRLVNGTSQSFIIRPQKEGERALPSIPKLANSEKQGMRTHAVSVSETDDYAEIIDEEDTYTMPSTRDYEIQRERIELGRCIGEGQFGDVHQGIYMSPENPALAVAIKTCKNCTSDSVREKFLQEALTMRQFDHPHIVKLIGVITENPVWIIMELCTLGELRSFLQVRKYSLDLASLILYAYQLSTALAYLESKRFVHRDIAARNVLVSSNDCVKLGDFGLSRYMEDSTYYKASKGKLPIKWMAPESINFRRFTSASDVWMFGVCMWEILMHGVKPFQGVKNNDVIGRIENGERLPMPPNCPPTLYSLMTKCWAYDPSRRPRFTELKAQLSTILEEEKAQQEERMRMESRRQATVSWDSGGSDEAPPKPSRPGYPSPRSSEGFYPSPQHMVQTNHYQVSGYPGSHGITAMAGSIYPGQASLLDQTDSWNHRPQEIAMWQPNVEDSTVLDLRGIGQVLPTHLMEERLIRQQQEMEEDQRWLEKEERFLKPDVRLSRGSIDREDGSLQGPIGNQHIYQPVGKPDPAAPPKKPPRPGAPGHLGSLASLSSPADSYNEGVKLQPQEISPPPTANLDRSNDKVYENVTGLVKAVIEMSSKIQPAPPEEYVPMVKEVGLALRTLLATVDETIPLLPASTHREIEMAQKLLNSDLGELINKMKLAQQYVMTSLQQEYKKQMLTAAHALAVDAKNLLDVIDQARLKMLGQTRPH
Form field: pIC50 (one value per entry).
pIC50 (log units): -log10 of the concentration in mol/L.

Examples with their reported pIC50 follow.
Just so you know, measured pIC50 for COc1cc(C(=O)NC2CCN(C)CC2)ccc1Nc1ncc(C(F)(F)F)c(N[C@@H]2Cc3ccccc3[C@H]2NC(C)=O)n1 came out at 8.70

Just so you know, measured pIC50 for COc1cc(C(=O)NC2CCN(C)CC2)c(F)cc1Nc1ncc(C(F)(F)F)c(N[C@@H]2Cc3ccccc3[C@H]2N(C)S(C)(=O)=O)n1 came out at 8.70

Just so you know, measured pIC50 for COc1cc(C(=O)NC2CCC(N3CCN(CC4CC4)CC3)CC2)c(F)cc1Nc1ncc(C(F)(F)F)c(N[C@@H]2Cc3ccccc3[C@H]2N(C)S(C)(=O)=O)n1 (stereo partly drawn) came out at 8.40

Just so you know, measured pIC50 for COc1cc(C(=O)NC2CCCN(C)C2)c(F)cc1Nc1ncc(C(F)(F)F)c(N[C@@H]2Cc3ccccc3[C@H]2N(C)S(C)(=O)=O)n1 (stereo partly drawn) came out at 8.52

Just so you know, measured pIC50 for COCCNC(=O)c1ccc(Nc2ncc(C(F)(F)F)c(N[C@@H]3Cc4ccccc4[C@H]3N(C)S(C)(=O)=O)n2)c(OC)c1 came out at 8.70

Continuing:
Just so you know, measured pIC50 for COc1nc(C)ccc1Nc1ncc(C(F)(F)F)c(N[C@@H]2Cc3ccccc3[C@H]2N(C)S(C)(=O)=O)n1 came out at 7.96

Just so you know, measured pIC50 for COc1cc(C(=O)NC2CCN(C)CC2)ccc1Nc1ncc(C(F)(F)F)c(N[C@@H]2Cc3ccccc3[C@H]2NS(C)(=O)=O)n1 came out at 8.70

Just so you know, measured pIC50 for CNC(=O)c1ccc(Nc2ncc(Cl)c(N[C@@H]3Cc4ccccc4[C@H]3N(C)S(C)(=O)=O)n2)c(OC)c1 came out at 8.15

Just so you know, measured pIC50 for COc1cc(C(=O)NC2CCN(C)CC2)c(C)cc1Nc1ncc(Cl)c(N[C@@H]2Cc3ccccc3[C@H]2N(C)S(C)(=O)=O)n1 came out at 9.00

Just so you know, measured pIC50 for COc1cc(C(=O)NC2CCC(N3CCN(CC4CC4)CC3)CC2)ccc1Nc1ncc(C(F)(F)F)c(N[C@@H]2Cc3ccccc3[C@H]2N(C)S(C)(=O)=O)n1 (stereo partly drawn) came out at 9.00

Just so you know, measured pIC50 for COc1cc(Nc2ncc(C(F)(F)F)c(N[C@@H]3Cc4ccccc4[C@H]3N(C)S(C)(=O)=O)n2)ccc1NC(C)=O came out at 8.70

Just so you know, measured pIC50 for COc1cc(N2CCN(C3COC3)CC2)ccc1Nc1ncc(C(F)(F)F)c(N[C@@H]2Cc3ccccc3[C@H]2N(C)S(C)(=O)=O)n1 came out at 8.52
